measurement_protocol: Phase I first-in-human study: plasma and urine pharmacokinetics
Type: in vivo
recorded_conditions: human, plasma, oral, 360 mg, t 1/2, MAD 360 mg once daily, fed, Day 7; mean (SD)

substance_smiles | half-life, h
CC(=O)N[C@H]1CC[C@H](NC(=O)CN2CCN(c3nncc(-c4ccc(C)cc4)n3)CC2)CC1 | 9.2

----------
measurement_protocol: Phase I first-in-human study: plasma and urine pharmacokinetics
Assay type: in vivo
recorded_conditions: human, plasma, oral, 50 mg, t 1/2, SAD 50 mg single dose, fasted; mean (SD)
endpoint_label: half-life (h)

substance_smiles | endpoint_label | unit_name | endpoint_value
CC(=O)N[C@H]1CC[C@H](NC(=O)CN2CCN(c3nncc(-c4ccc(C)cc4)n3)CC2)CC1 | half-life | h | 9.1

----------
measurement_protocol: Phase I first-in-human study: plasma and urine pharmacokinetics
Format: in vivo
recorded_conditions: human, plasma, oral, 5 mg, t 1/2, SAD 5 mg single dose, fasted; mean (SD)

compound | half-life [h]
CC(=O)N[C@H]1CC[C@H](NC(=O)CN2CCN(c3nncc(-c4ccc(C)cc4)n3)CC2)CC1 [lorundrostat, Lorundrostat] | 8.3

----------
measurement_protocol: Phase I first-in-human study: plasma and urine pharmacokinetics
Assay type: in vivo
recorded_conditions: human, plasma, oral, 400 mg, t 1/2, SAD 400 mg single dose, fasted; mean (SD)

compound | half-life / h
CC(=O)N[C@H]1CC[C@H](NC(=O)CN2CCN(c3nncc(-c4ccc(C)cc4)n3)CC2)CC1 [lorundrostat, Lorundrostat] | 9.7

----------
measurement_protocol: Phase I first-in-human study: plasma and urine pharmacokinetics
Format: in vivo
recorded_conditions: human, plasma, oral, t 1/2, single- and multiple-dose administration

substance_smiles | half-life
CC(=O)N[C@H]1CC[C@H](NC(=O)CN2CCN(c3nncc(-c4ccc(C)cc4)n3)CC2)CC1 | 10 to 12 h
